Consider the following compounds; for each one, report its IC50.
Tested on: 4T1 (a metastatic murine breast cancer cell line)
Assay explanation: In vitro cytotoxicity evaluation, 4T1
Type: cell-based
Run conditions: Mus musculus; 4T1 cells; average ± SEM of minimum three individual experiments

Compound: COC(=O)C(O)(CO)COC(=O)c1nn(-c2ccc(N(Cc3ccc(F)cc3)Cc3ccc(F)cc3)cc2)c2ccccc12 (stereo not shown)
Test system: 4T1 (a metastatic murine breast cancer cell line)
Property name: IC50
Endpoint value: 2.87 µM
//
Compound: O=C(O)c1nn(-c2ccc(N(Cc3ccccc3)Cc3ccccc3)cc2)c2ccccc12
Test system: 4T1 (a metastatic murine breast cancer cell line)
Property name: IC50
Endpoint value: > 25 µM
//
Compound: C=C(COC(=O)c1nn(-c2ccc(N(Cc3ccc(OC)cc3)Cc3ccc(OC)cc3)cc2)c2ccccc12)C(=O)OC
Test system: 4T1 (a metastatic murine breast cancer cell line)
Property name: IC50
Endpoint value: > 25 µM

Parameters: items (list). Returns: IC50 for each item.
1. COC(=O)c1nn(-c2ccc(N(Cc3ccccc3)Cc3ccccc3)cc2)c2ccccc12
2. COC(=O)C(O)(CO)COC(=O)c1nn(-c2ccc(N(Cc3ccc(Cl)cc3)Cc3ccc(Cl)cc3)cc2)c2ccccc12 (stereo not shown)
3. C=C(COC(=O)c1nn(-c2ccc(N(Cc3ccc(F)cc3)Cc3ccc(F)cc3)cc2)c2ccccc12)C(=O)OC
4. COC(=O)C(O)(CO)COC(=O)c1nn(-c2ccc(N(Cc3ccccc3)Cc3ccccc3)cc2)c2ccccc12 (stereo not shown)
5. C=C(COC(=O)c1nn(-c2ccc(N(Cc3ccc(Cl)cc3)Cc3ccc(Cl)cc3)cc2)c2ccccc12)C(=O)OC
6. C=C(COC(=O)c1nn(-c2ccc(N(Cc3ccccc3)Cc3ccccc3)cc2)c2ccccc12)C(=O)OC

A)
> 25 µM
4.8 µM
10.8 µM
4.9 µM
> 25 µM
> 25 µM

Q) Kindly state the measured IC50 obtained for COC(=O)C(O)(CO)COC(=O)c1nn(-c2ccc(N(Cc3ccc(OC)cc3)Cc3ccc(OC)cc3)cc2)c2ccccc12 (stereo not shown) with 4T1 (a metastatic murine breast cancer cell line).
A) 7.12 µM
